Listing: EC50 of selected binders
target: T1, Survivin (purified recombinant Survivin protein) (human, UniProt O15392 1-140, limits assumed, biotinylated on the Avi-tag by BirA (antigens for selection and ELISA)); experiment: multipoint protein ELISA: 50 nM immobilised target, 3-fold serial dilutions of purified Fab, protein L-HRP, sigmoidal fit
T1 construct: also called Baculoviral IAP repeat-containing protein 5; BIRC5
T1 sequence (O15392 1-140 limits assumed): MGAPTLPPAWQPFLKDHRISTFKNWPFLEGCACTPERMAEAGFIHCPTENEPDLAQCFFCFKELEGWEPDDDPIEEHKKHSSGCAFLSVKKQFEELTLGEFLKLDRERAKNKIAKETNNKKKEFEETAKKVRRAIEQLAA
Report the figure in nM without appending any unit label.

• SUR-FL-25 (Fab, V domains shown, also called SUR-FL-25 Fab) VH: EVQLVESGGGLVQPGGSLRLSCAASGFNVYSSSIHWVRQAPGKGLEWVASIYPYYSYTSYADSVKGRFTISADTSKNTAYLQMNSLRAEDTAVYYCARWKKSRSGGMWGMDYWGQGTLVTVSS VL: DIQMTQSPSSLSASVGDRVTITCRASQSVSSAVAWYQQKPGKAPKLLIYSASSLYSGVPSRFSGSRSGTDFTLTISSLQPEDFATYYCQQYSSFPITFGQGTKVEIKR = 10

In the following, a different binder is considered.
Query: What measured EC50 goes with SUR-FL-24 (Fab, V domains shown, also called SUR-FL-24 Fab) VH: EVQLVESGGGLVQPGGSLRLSCAASGFNFYSSSIHWVRQAPGKGLEWVASIYPYYSSTSYADSVKGRFTISADTSKNTAYLQMNSLRAEDTAVYYCARWYHYYSVQQYGLDYWGQGTLVTVSS VL: DIQMTQSPSSLSASVGDRVTITCRASQSVSSAVAWYQQKPGKAPKLLIYSASSLYSGVPSRFSGSRSGTDFTLTISSLQPEDFATYYCQQSTSFPITFGQGTKVEIKR ?
Reply: 18

Data origin, for the record: patent US20250018038A1
